# measuredTarget: Ba/F3-Flt3-transfected cells (Homo sapiens, UniProt P36888, cells depend on it, form not given)
# Construct: BAF3-FLT3 (MIN IL3 Alamar Blue pIC50); other: minus IL3; 24 hours, Alamar Blue
# assayText: Ba/F3-Flt3 (minus IL3 or plus IL3) cellular proliferation assay, Alamar Blue
# Assay type: cell-based
# conditionInfo: minus IL3, 24 hours
valueKind: BAF3-FLT3 (MIN IL3 Alamar Blue pIC50)

>  <givenSmiles>
COc1cc(OC)cc(N(CCNC(C)C)c2ccc3ncc(-c4cn[nH]c4)cc3c2)c1

>  <BAF3-FLT3 (MIN IL3 Alamar Blue pIC50)>
5.09

$$$$
>  <givenSmiles>
COc1cc(OC)cc(N(CC#Cc2nccc(OC)n2)c2ccc3ncc(-c4cnn(C)c4)cc3c2)c1

>  <BAF3-FLT3 (MIN IL3 Alamar Blue pIC50)>
5.19

$$$$

----------
# measuredTarget: FGFR1 (h) (Homo sapiens, UniProt P11362)
# assayText: FGFR1 (enzymatic assay), TR-FRET
# Type: biochemical
# conditionInfo: FGFR 1 pIC50, 5 μM ATP, 60 min; pIC50 = -log IC50 (M); average if tested multiple times
valueKind: IC50 (M)

>  <compound>
CNCCN(c1ccc2ncc(-c3cnn(C)c3)cc2c1)c1c(F)c(OC)cc(OC)c1F [Compound 43]

>  <IC50 (M)>
1.07e-09

$$$$

A. COc1cc(OC)c(F)c(N(CCNC(C)C)c2ccc3ncc(-c4cnn(C)c4)cc3c2)c1F [Compound 42]
B. COc1cc(Nc2ccc3ncc(-c4cnn(C5CCCCO5)c4)cc3c2)cc(OC)c1 (centres unmarked) [Int. 8]
Ask | Given the two records A and B , choose the one whose IC50 value is lower. # answer = label of selected item
Reply | A

a. COc1cc(OC)cc(N(CCNC(C)C)c2ccc3ncc(-c4cnn(C5CCCCO5)c4)cc3c2)c1 (centres unmarked) [Compound 22]
b. COc1cc(OC)cc(N(CCCN)c2ccc3ncc(-c4cnn(C)c4)cc3c2)c1 [Compound 11]
c. COc1cc(OC)cc(N(CCNC(C)C)c2ccc3ncc(-c4cnn(CCO)c4)cc3c2)c1 [Compound 13]
d. COc1cc(OC)cc(N(CCO)c2ccc3ncc(-c4cnn(C)c4)cc3c2)c1 [Compound 3]
Ask | Rank order required: IC50, descending. Use the labels to give the requested order.
Reply | d, b, c, a
(d: 1.38e-08 M, b: 3.63e-09 M, c: 2.51e-09 M, a: 1.2e-09 M)

----------
# measuredTarget: Ba/F3-FGFR1-transfected cells (Homo sapiens, UniProt P11362, cells depend on it, form not given)
# Construct: other: minus IL3; 24 hours, Alamar Blue
# Sequence (P11362 whole entry, change not shown): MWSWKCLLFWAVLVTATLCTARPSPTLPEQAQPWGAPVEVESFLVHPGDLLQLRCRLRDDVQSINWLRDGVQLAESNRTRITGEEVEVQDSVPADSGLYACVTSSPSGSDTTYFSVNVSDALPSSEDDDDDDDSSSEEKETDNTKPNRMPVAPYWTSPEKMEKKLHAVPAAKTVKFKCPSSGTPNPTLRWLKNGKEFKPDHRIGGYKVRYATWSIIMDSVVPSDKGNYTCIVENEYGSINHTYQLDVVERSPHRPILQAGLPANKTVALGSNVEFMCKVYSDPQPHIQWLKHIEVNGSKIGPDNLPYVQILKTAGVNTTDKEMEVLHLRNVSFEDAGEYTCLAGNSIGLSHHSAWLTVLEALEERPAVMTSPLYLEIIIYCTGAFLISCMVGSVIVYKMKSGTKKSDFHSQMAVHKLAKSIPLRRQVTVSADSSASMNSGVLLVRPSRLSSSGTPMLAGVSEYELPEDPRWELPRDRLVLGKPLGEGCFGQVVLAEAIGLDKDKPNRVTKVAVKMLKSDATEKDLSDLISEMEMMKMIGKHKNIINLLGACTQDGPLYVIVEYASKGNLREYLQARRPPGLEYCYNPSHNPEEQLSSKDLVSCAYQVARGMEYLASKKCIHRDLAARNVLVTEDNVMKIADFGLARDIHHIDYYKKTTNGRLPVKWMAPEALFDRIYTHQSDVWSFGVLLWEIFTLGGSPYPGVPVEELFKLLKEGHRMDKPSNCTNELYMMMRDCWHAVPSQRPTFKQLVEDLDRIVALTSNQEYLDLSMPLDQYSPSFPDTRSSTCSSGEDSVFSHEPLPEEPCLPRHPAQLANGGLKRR
# assayText: Ba/F3-FGFR1 (minus IL3 or plus IL3) cellular proliferation assay, Alamar Blue
# Type: cell-based
# conditionInfo: minus IL3, 24 hours
valueKind: BAF3-FGFR1 (MIN IL3 pIC50)

>  <molecule>
COc1cc(OC)cc(N(CCCNCC(F)(F)F)c2ccc3ncc(-c4cnn(C)c4)cc3c2)c1

>  <valueKind>
BAF3-FGFR1 (MIN IL3 pIC50)

>  <numericReadout>
5.79

$$$$
>  <molecule>
COc1cc(OC)cc(N(CCNC(C)C)c2ccc3ncc(-c4ccccc4)cc3c2)c1

>  <valueKind>
BAF3-FGFR1 (MIN IL3 pIC50)

>  <numericReadout>
6.13

$$$$
>  <molecule>
COc1cc(OC)cc(/C(=C/C#N)c2ccc3ncc(-c4cnn(C)c4)cc3c2)c1

>  <valueKind>
BAF3-FGFR1 (MIN IL3 pIC50)

>  <numericReadout>
5.45

$$$$
>  <molecule>
COc1cc(OC)cc(C(CCO)c2ccc3ncc(-c4cnn(C)c4)cc3c2)c1 (centres unmarked)

>  <valueKind>
BAF3-FGFR1 (MIN IL3 pIC50)

>  <numericReadout>
5.01

$$$$
>  <molecule>
COc1cc(OC)c(F)c(N(CCNC(C)C)c2ccc3ncc(-c4cnn(C)c4)cc3c2)c1F

>  <valueKind>
BAF3-FGFR1 (MIN IL3 pIC50)

>  <numericReadout>
8.95

$$$$
>  <molecule>
COc1cc(OC)cc(N(CCCN2CCCO2)c2ccc3ncc(-c4cnn(C)c4)cc3c2)c1

>  <valueKind>
BAF3-FGFR1 (MIN IL3 pIC50)

>  <numericReadout>
6.32

$$$$
>  <molecule>
COc1cc(OC)cc(N(CCNC(C)C)c2ccc3ncc(-c4cnn(C)c4)cc3c2)c1

>  <valueKind>
BAF3-FGFR1 (MIN IL3 pIC50)

>  <numericReadout>
7.4

$$$$
>  <molecule>
COc1cc(OC)cc(N(CCCN2CCCC2=O)c2ccc3ncc(-c4cnn(C)c4)cc3c2)c1

>  <valueKind>
BAF3-FGFR1 (MIN IL3 pIC50)

>  <numericReadout>
6.03

$$$$
>  <molecule>
CNCCN(c1ccc2ncc(-c3cnn(C)c3)cc2c1)c1c(F)c(OC)cc(OC)c1F

>  <valueKind>
BAF3-FGFR1 (MIN IL3 pIC50)

>  <numericReadout>
8.68

$$$$
>  <molecule>
COc1cc(OC)cc(N(Cc2ncc[nH]2)c2ccc3ncc(-c4cnn(C)c4)cc3c2)c1

>  <valueKind>
BAF3-FGFR1 (MIN IL3 pIC50)

>  <numericReadout>
6.88

$$$$
>  <molecule>
COc1cc(OC)cc(C(=O)c2ccc3ncc(-c4cnn(C)c4)cc3c2)c1

>  <valueKind>
BAF3-FGFR1 (MIN IL3 pIC50)

>  <numericReadout>
5.65

$$$$
>  <molecule>
COc1cc(OC)cc(N(CCNC(C)C)c2ccc3ncc(-c4cnn(CCO)c4)cc3c2)c1

>  <valueKind>
BAF3-FGFR1 (MIN IL3 pIC50)

>  <numericReadout>
7.23

$$$$
>  <molecule>
COc1cc(OC)cc(N(Cc2nccn2S(=O)(=O)N(C)C)c2ccc3ncc(-c4cccnc4)cc3c2)c1

>  <valueKind>
BAF3-FGFR1 (MIN IL3 pIC50)

>  <numericReadout>
5.37

$$$$
>  <molecule>
COc1cc(OC)cc(N(CCO)c2ccc3ncc(-c4ccccc4)cc3c2)c1

>  <valueKind>
BAF3-FGFR1 (MIN IL3 pIC50)

>  <numericReadout>
5.11

$$$$
>  <molecule>
COc1cc(OC)cc(N(CCNC(C)C)c2ccc3ncc(-c4cnn(C5CCCCO5)c4)cc3c2)c1 (centres unmarked)

>  <valueKind>
BAF3-FGFR1 (MIN IL3 pIC50)

>  <numericReadout>
7.85

$$$$
>  <molecule>
COc1cc(OC)cc(N(Cc2ncc[nH]2)c2ccc3ncc(N4CCOCC4)cc3c2)c1

>  <valueKind>
BAF3-FGFR1 (MIN IL3 pIC50)

>  <numericReadout>
5.64

$$$$
>  <molecule>
COc1cc(OC)cc(N(Cc2ncc[nH]2)c2ccc3ncc(-c4ccccc4)cc3c2)c1

>  <valueKind>
BAF3-FGFR1 (MIN IL3 pIC50)

>  <numericReadout>
5.77

$$$$
>  <molecule>
COc1cc(OC)cc(N(CC#Cc2ncccc2OC)c2ccc3ncc(-c4cnn(C)c4)cc3c2)c1

>  <valueKind>
BAF3-FGFR1 (MIN IL3 pIC50)

>  <numericReadout>
7.35

$$$$
>  <molecule>
COc1cc(Nc2ccc3ncc(-c4cnn(C5CCCCO5)c4)cc3c2)cc(OC)c1 (centres unmarked)

>  <valueKind>
BAF3-FGFR1 (MIN IL3 pIC50)

>  <numericReadout>
5.29

$$$$
>  <molecule>
COc1cc(OC)cc(N(CC(O)C(F)(F)F)c2ccc3ncc(-c4cnn(C)c4)cc3c2)c1 (single isomer, unassigned) [Compound 24]

>  <valueKind>
BAF3-FGFR1 (MIN IL3 pIC50)

>  <numericReadout>
7.73

$$$$
>  <molecule>
COc1cccnc1C#CCN(c1ccc2ncc(-c3cnn(C)c3)cc2c1)c1c(F)c(OC)cc(OC)c1F

>  <valueKind>
BAF3-FGFR1 (MIN IL3 pIC50)

>  <numericReadout>
8.715

$$$$
>  <molecule>
COc1cc(OC)cc(/C(=C\C#N)c2ccc3ncc(-c4cnn(C)c4)cc3c2)c1

>  <valueKind>
BAF3-FGFR1 (MIN IL3 pIC50)

>  <numericReadout>
6.03

$$$$
>  <molecule>
COc1cc(OC)cc(C(CC#N)c2ccc3ncc(-c4cnn(C)c4)cc3c2)c1 (centres unmarked)

>  <valueKind>
BAF3-FGFR1 (MIN IL3 pIC50)

>  <numericReadout>
5.09

$$$$
>  <molecule>
COc1cc(OC)c(F)c(N(CC#Cc2ncccc2OC)c2ccc3ncc(-c4cnn(C)c4)cc3c2)c1

>  <valueKind>
BAF3-FGFR1 (MIN IL3 pIC50)

>  <numericReadout>
7.95

$$$$
>  <molecule>
COc1cc(OC)cc(N(CC#Cc2nccn2C)c2ccc3ncc(-c4cnn(C)c4)cc3c2)c1

>  <valueKind>
BAF3-FGFR1 (MIN IL3 pIC50)

>  <numericReadout>
7.24

$$$$
>  <molecule>
COc1cc(OC)cc(N(CCO)c2ccc3ncc(-c4cnn(C)c4)cc3c2)c1

>  <valueKind>
BAF3-FGFR1 (MIN IL3 pIC50)

>  <numericReadout>
6.31

$$$$
